Recorded values, source patent US20100310549A1.

Biological target: T1, human vascular endothelial growth factor receptor-2 Fc chimera (KDR-Fc) (human, UniProt P35968 20-764)
T1 construct: range 1-764; also called human VEGF-R2-Fc; not shown: human IgG1 Fc
T1 sequence (P35968 20-764 limits assumed, change not shown, form in doubt): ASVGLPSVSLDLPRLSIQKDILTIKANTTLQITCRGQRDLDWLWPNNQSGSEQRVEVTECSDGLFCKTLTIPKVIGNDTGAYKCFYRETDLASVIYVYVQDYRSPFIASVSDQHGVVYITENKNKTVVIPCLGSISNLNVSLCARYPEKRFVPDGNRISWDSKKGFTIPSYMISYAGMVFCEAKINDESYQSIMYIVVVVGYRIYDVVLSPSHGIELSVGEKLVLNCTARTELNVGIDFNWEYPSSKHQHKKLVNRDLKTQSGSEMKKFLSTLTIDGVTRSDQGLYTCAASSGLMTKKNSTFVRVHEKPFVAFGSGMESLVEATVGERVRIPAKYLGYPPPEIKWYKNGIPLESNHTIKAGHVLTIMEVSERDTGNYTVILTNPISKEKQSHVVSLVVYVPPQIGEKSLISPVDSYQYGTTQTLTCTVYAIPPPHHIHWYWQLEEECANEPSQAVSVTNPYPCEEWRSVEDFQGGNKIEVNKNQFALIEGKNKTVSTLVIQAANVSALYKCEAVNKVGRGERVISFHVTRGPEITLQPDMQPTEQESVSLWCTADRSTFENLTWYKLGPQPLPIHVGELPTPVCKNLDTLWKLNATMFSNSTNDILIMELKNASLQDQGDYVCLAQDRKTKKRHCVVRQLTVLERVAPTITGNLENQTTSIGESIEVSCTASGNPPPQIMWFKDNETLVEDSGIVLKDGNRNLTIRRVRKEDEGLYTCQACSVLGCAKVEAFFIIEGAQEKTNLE
Assay: BIAcore, KDR-Fc immobilised on CM5 chip
outcome_measure: pKd
Scale for pKd: -log10 of concentration given in mol/L; no unit attached.

[[record]]
binder = "E18, E. coli-expressed, His6 (designed binder, soluble E. coli form; N-terminal residues added for expression not described) EVVAATPTSLLISWRHPHFPTRYYRITYGETGGNSPVQEFTVPLQPPTATISGLKPGVDYTITGYAVTVERNGRELNTPISINYRTEIDKPSQHHHHHH"
outcome_measure = "pKd"
assay_value = 9.34

[[record]]
binder = "E19, E. coli-expressed, His6 (designed binder, soluble E. coli form; N-terminal residues added for expression not described) EVVAATPTSLLISWRHPHFPTRYYRITYGETGGNSPVQEFTVPLQPPTATISGLKPGVDYTITGYAVTVERNGRHLMTPISINYRTEIDKPSQHHHHHH"
outcome_measure = "pKd"
assay_value = 10.22

[[record]]
binder = "M5FL, E. coli-expressed, His6 (designed binder, soluble E. coli form with Ser100) VSDVPRDLEVVAATPTSLLISWRHPHFPTRYYRITYGETGGNSPVQEFTVPLQPPLATISGLKPGVDYTITVYAVTKERNGRELFTPISINYRTEIDKPSQHHHHHH"
outcome_measure = "pKd"
assay_value = 9.05

[[record]]
binder = "E29, E. coli-expressed, His6 (designed binder, soluble E. coli form; N-terminal residues added for expression not described) EVVAATPTSLLISWRHPHFPTRYYRITYGETGGNSPVQEFTVPLQPPTATISGLKPGVDYTITGYAVTVERNGRVLMTPISINYRTEIDKPSQHHHHHH"
outcome_measure = "pKd"
assay_value = 9.72

[[record]]
binder = "VR28, E. coli-expressed, His6 (designed binder, soluble E. coli form; N-terminal Met not described) VSDVPRDLEVVAATPTSLLISWRHPHFPTRYYRITYGETGGNSPVQEFTVPLQPPTATISGLKPGVDYTITGYAVTVAQNDHELITPISINYRTEIDKPSQHHHHHH"
outcome_measure = "pKd"
assay_value = 7.89


Let us examine a further case.
Consider the binder shown here: E6, E. coli-expressed, His6 (designed binder, soluble E. coli form; N-terminal residues added for expression not described) EVVAATPTSLLISWRHPHFPTRYYRITYGETGGNSPVQEFTVPLQPPTATISGLKPGVDYTITGYAVTDGWNGRLLSIPISINYRTEIDKPSQHHHHHH What is its recorded pKd?
10.10
